test system: SK-OV-3 ovarian; assay: NCI tumour cell line growth inhibition, 48 h
assay readout: TGI (µM)

compound=CC1=C(C)SC(=C2Sc3nc(O)[nH]c(=O)c3S2)S1 assay_readout=TGI unit_info=µM lt_gt_eq=> reported_value=100
compound=O=C1CC(=O)NC(=NNS(=O)(=O)c2ccc(Cl)cc2)N1 assay_readout=TGI unit_info=µM lt_gt_eq=> reported_value=100
compound=COc1cccc(/C=C2\S/C(=N/Nc3nc(-c4ccc([N+](=O)[O-])cc4)cs3)NC2=O)c1O assay_readout=TGI unit_info=µM lt_gt_eq== reported_value=79.8
compound=Cc1nc2sccn2c1/C=C1/C(=O)Nc2cccc(Cl)c21 assay_readout=TGI unit_info=µM lt_gt_eq=> reported_value=100
compound="CC1C(C#N)(C#N)C(C#N)=C(N)C1(Cl)[N+](=O)[O-] (stereo unspecified)" assay_readout=TGI unit_info=µM lt_gt_eq== reported_value=32.6
compound=COC(=O)c1cc2ccccc2c2c3c(ccc12)OCO3 assay_readout=TGI unit_info=µM lt_gt_eq== reported_value=357

Reference for the values: PubChem BioAssay (NCI)
